System: sorghum
assayProtocol: Herbicidal activity test against upland field weeds (foliar treatment test)
Format: in vivo
recordedConditions: 50 g ai/ha, scale 0-100
endpointName: Foliar treatment herbicidal activity, Sorghum
Give the value as a plain number.

Any idea what Foliar treatment herbicidal activity, Sorghum was measured for CC(C)OC(=O)OC(C)N(C(=O)c1ccc(C(F)(F)F)nc1COCc1nnn(C)n1)c1nnnn1C (centres unmarked) [Compound No. 4-12] ? 70

Here is the next compound: CCc1cc(C(=O)Nc2nnnn2C)c(OCc2nnnn2C)nc1C(F)(F)F [Compound No. 1-19] 0

Here is the next compound: Cc1cc(C(=O)Nc2nnnn2C)c(OCc2nnnn2C)nc1C(F)(F)F [Compound No. 1-17] 0

Here is the next compound: COC(=O)OC(C)N(C(=O)c1ccc(C(F)(F)F)nc1CSCc1nnn(C)n1)c1nnnn1C (centres unmarked) [Compound No. 4-3] 80

Here is the next compound: Cn1nnnc1COc1nc(Cl)ccc1C(=O)Nc1nnnn1C [Compound No. 1-20] 0

Here is the next compound: COC(=O)OC(C)N(C(=O)c1ccc(C(F)(F)F)nc1COCc1nnn(C)n1)c1nnnn1C (centres unmarked) [Compound No. 4-4] 100

Here is the next compound: Cn1nnnc1NC(=O)c1ccc(C(F)(F)F)nc1COc1nnnn1C [Compound No. 1-115] 0

Here is the next compound: Cn1nnnc1COc1nc(C(F)(F)F)ccc1C(=O)Nc1nnnn1C(F)F [Compound No. 1-4] 0

* * *

Tested on: corn
assayProtocol: Phytotoxicity test for upland field crops (foliar treatment test)
Format: in vivo
recordedConditions: 50 g ai/ha, Corn (7 days after treatment)
Protocol: Experimental Example 3: Phytotoxicity Test for Upland Field Crops (Foliar Treatment Test) Foliar treatment was performed for grown crops and weeds in a square plastic pot having a surface area of 50 cm^2 filled with horticultural soil. As a fertilizer per pot, 0.5 g of horticultural mixed fertilizer (N:P:K=17:21:17) was treated by mixing in the upper soil. […]
endpointName: Foliar treatment phytotoxicity, Corn
Give the value as a plain number.

Any idea what Foliar treatment phytotoxicity, Corn was measured for CCOC(=O)OC(C)n1nnn(C)c1=NC(=O)c1ccc(C(F)(F)F)nc1CSCc1nnn(C)n1 (stereo not shown) [Compound No. 4-10] ? 2

Here is the next compound: CCOC(=O)OC(C)N(C(=O)c1ccc(C(F)(F)F)nc1COCc1nnn(C)n1)c1nnnn1C (stereo not shown) [Compound No. 4-8] 0

Here is the next compound: Cn1nnc(COCc2nc(C(F)(F)F)ccc2C(=S)Nc2nnnn2C)n1 [Compound No. 2-106] 5

Here is the next compound: Cn1nnc(COCc2nc(C(F)(F)F)ccc2C(=O)N(c2nnnn2C)S(C)(=O)=O)n1 [Compound No. 2-69] 4

Here is the next compound: Cn1nnnc1NC(=O)c1ccc(C(F)(F)F)nc1COCc1nc(C(F)(F)F)n(C)n1 [Compound No. 2-118] 0

Here is the next compound: C=CCn1nnnc1NC(=O)c1ccc(C(F)(F)F)nc1COCc1nc(C(F)F)n(C)n1 [Compound No. 2-125] 0

Here is the next compound: Cn1nnc(CS(=O)(=O)Cc2nc(C(F)(F)F)ccc2C(=O)Nc2nnnn2C)n1 [Compound No. 2-105] 0

Here is the next compound: Cn1nc(COCc2nc(C(F)(F)F)ccc2C(=O)Nc2nnnn2C)nc1Cl [Compound No. 2-135] 0

Here is the next compound: CON(Cc1nnn(C)n1)Cc1nc(C(F)(F)F)ccc1C(=O)Nc1nnnn1C [Compound No. 2-97] 0

Here is the next compound: CON(Cc1nnn(C)n1)c1nc(C(F)(F)F)ccc1C(=O)Nc1nnnn1C [Compound No. 2-30] 0

Here is the next compound: Cn1nnc(CSCc2nc(C(F)(F)F)ccc2C(=S)Nc2nnnn2C)n1 [Compound No. 2-107] 1

Here is the next compound: C=CCn1nnnc1NC(=O)c1ccc(C(F)(F)F)nc1COCc1ncn(C)n1 [Compound No. 2-115] 0

Here is the next compound: Cn1nnc(COCc2nc(C(F)(F)C(F)(F)F)ccc2C(=O)Nc2nnnn2C)n1 [Compound No. 2-81] 2

Here is the next compound: Cn1nc(COCc2nc(C(F)(F)F)ccc2C(=O)Nc2nnnn2C)nc1C#N [Compound No. 2-134] 0

Here is the next compound: COC(=O)OC(C)N(C(=O)c1ccc(C(F)(F)F)nc1COCc1nnn(C)n1)c1nnnn1C (stereo not shown) [Compound No. 4-4] 0

Here is the next compound: Cn1nnc(CSCc2nc(C(F)(F)F)ccc2C(=O)N(c2nnnn2C)S(C)(=O)=O)n1 [Compound No. 2-110] 0
